target_of_assay: Serotonin, 5HT1A (human recombinant) (Homo sapiens, UniProt P08908)
Sequence (P08908 whole entry): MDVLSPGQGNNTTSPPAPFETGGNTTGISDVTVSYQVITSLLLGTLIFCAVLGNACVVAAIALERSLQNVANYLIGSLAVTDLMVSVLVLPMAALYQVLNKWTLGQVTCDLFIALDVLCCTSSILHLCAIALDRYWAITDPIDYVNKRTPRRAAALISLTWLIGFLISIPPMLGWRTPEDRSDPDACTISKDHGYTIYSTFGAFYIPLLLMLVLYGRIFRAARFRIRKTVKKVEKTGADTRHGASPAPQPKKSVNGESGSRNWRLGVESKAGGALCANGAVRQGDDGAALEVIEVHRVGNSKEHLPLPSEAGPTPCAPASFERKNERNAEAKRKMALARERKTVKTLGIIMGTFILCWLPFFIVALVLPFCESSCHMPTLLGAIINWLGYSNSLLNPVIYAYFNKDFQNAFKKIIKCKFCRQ
assay_summary: Serotonin, 5HT1A (human recombinant) radioligand binding assay ([3H]-8-OH-DPAT)
condition_context: human recombinant in HEK-293 cells
Where a name gives a salt, the structure may show the parent alone.
assay_readout: pKi
Numbers only, as −log10 of the molar value.

Consider the following illustrative entries.
molecule	pKi
CCOC(=O)CCCOc1ccccc1N1CCN(CCCCOc2ccc3c(c2)NC(=O)CC3)CC1 [Compound 9a, hydrochloride]	8.41
O=C1CCc2ccc(C(=O)OCCCN3CCN(c4cccc(Cl)c4Cl)CC3)cc2N1 [Compound 24b, hydrochloride]	7.80

What does the data say about its pKi? Entry: O=C1CCc2ccc(COC(=O)CCCN3CCN(c4cccc(Cl)c4Cl)CC3)cc2N1 [Compound 39d] 7.31
